experimentalDetails: Pharmacokinetics in mice after single s.c. or oral dose
Type: in vivo, female CD1 mice
measurementSetup: female, CD1, mouse, sc, 20 mg/kg, single dose, plasma
measure: half-life (h)

                                querysmiles    measure  outputunit  testresult
0  CCN(CC)CCCCCCOc1ccc(C(c2ccc(OCCCCCCN(CC)CC)cc2)=C2[C@H]3C[C@@H]4C[C@@H](C[C@H]2C4)C3)cc1  half-life           h        61.8
